# Test system: A549/ATCC NSCLC
# TEST NAME: NCI-60 one-dose screen, 48 h
# COND: 10 µM unless noted
The panel holds about 83,000 compounds, 20% with a hit somewhere; the sample as a whole holds those more often. Active and inactive are the calls of the source. Rule for the calls: active = growth percent below 10; inactive = the rest.
Would you mind answering with one of these outcomes? label 1 = active, label 0 = inactive

Observe how each entry below is paired with its result.
COMPOUND: CN(C)c1ccc(/C=C(\C#N)c2cc3ccccc3[nH]2)cc1
TESTED ON: A549/ATCC NSCLC
QUALITATIVE LABEL: label 0
//
COMPOUND: O=C(Oc1ccc(CCl)cc1)c1ccccc1
TESTED ON: A549/ATCC NSCLC
QUALITATIVE LABEL: label 1
//
COMPOUND: COc1ccc(/C=C2\CN(C(=O)C(Cl)Cl)C/C(=C\c3ccc(OC)cc3)C2=O)cc1
TESTED ON: A549/ATCC NSCLC
QUALITATIVE LABEL: label 1
//
COMPOUND: C#CC#CC#CC#CC#CC#CC#CC#CCC1OC[C@H](COC(=O)O[C@@H](C(=O)O[C@H]2C[C@@]3(O)[C@@H](OC(=O)c4ccccc4)[C@@H]4[C@]5(OC(C)=O)CO[C@@H]5C[C@H](O)[C@@]4(C)C(=O)[C@H](OC(C)=O)C(=C2C)C3(C)C)[C@@H](NC(=O)c2ccccc2)c2ccccc2)O1 (stereo partly specified)
TESTED ON: A549/ATCC NSCLC
QUALITATIVE LABEL: label 0
//
COMPOUND: Oc1c(CN2CCOCC2)cc(COCc2ccccc2)c2cccnc12
TESTED ON: A549/ATCC NSCLC
QUALITATIVE LABEL: label 0
//
COMPOUND: COc1ccc(-c2nn(-c3ccccc3)cc2/C=C/C(=O)NNC(=O)Nc2ccc(C)cc2)cc1
TESTED ON: A549/ATCC NSCLC
QUALITATIVE LABEL: label 0
//
COMPOUND: CC1=C2[C@@H](CC1)[C@]1(C)O[C@@](C3CCCCC3)(C[C@H]1OC(=O)CO)[C@H]2OC(=O)/C=C/c1ccccc1
TESTED ON: A549/ATCC NSCLC
QUALITATIVE LABEL: label 0
//
COMPOUND: O=C(O)c1ccc(-c2ccc(/C=N/Nc3nc(Nc4ccccc4)nc(N4CCCCC4)n3)o2)cc1
TESTED ON: A549/ATCC NSCLC
QUALITATIVE LABEL: label 0
//
COMPOUND: Fc1cccc(-c2ccc3c(c2)C2(CCNCC2)CN3)c1
TESTED ON: A549/ATCC NSCLC
QUALITATIVE LABEL: label 0
//
COMPOUND: Cn1cc(-c2nn3cc(-c4cccs4)nc3s2)c2cc(F)ccc21
TESTED ON: A549/ATCC NSCLC
QUALITATIVE LABEL: label 0

API: the following record is the query input.
-- ask Lab log entry: CSc1nc(C)c([N+](=O)[O-])c(N)n1 — outcome as called in the assay?
-- reply label 0

* * *

# Tested on: T-47D breast
# TEST NAME: NCI-60 one-dose screen, 48 h (100 = growth as untreated, 0 = no growth, -100 = all killed)
# COND: 10 µM unless noted
The panel holds about 83,000 compounds, 20% with a hit somewhere; the sample as a whole holds those more often.
MEASURED METRIC: growth (%)
I only need the number, in %, no unit after it.

# count of solved cases: 2
STRUCTURE SMILES STRING: Cc1cc2c(cc1C)N(C(=O)CCl)CC(=O)N2
UNIT OF MEASUREMENT: %
growth: 15.6
--
STRUCTURE SMILES STRING: Nc1[nH]n2cc(-c3ccc(F)cc3)nc2c1N=Nc1ccc(S(N)(=O)=O)cc1
UNIT OF MEASUREMENT: %
growth: 77.8

Switching to the query record.
-- ask What value of growth has been recorded for this entry: O=C(/C=C/c1ccccc1)c1ccc(Nc2nc(Nc3ccc(F)cc3)nc(Nc3ccc(Cl)cc3)n2)cc1
-- reply 62.1
